Molecular target: human CD3E&G complex (Sino Biological Inc., CT041-H0305H) (human) (UniProt P07766)
Sequence (P07766 23-126, chain 1 of 2): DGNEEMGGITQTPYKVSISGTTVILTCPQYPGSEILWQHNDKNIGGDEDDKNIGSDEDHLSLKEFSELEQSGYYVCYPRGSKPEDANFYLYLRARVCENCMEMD
Sequence (P09693 23-116, chain 2 of 2, further chain): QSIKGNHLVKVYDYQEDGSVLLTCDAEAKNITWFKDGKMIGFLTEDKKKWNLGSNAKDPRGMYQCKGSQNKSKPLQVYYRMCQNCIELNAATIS
Experiment: SPR, antigen on chip
test readout: koff (s⁻¹)
Give a bare numeral; the unit s⁻¹ is implied.

{"binder": "SGN70-sp34.80LH (bispecific antibody, part only; not given: anti-CD70 Fab arm and Fc, not shown: another chain or arm of the molecule; a dimerising Fc or GST) scFv: QAVVTQEPSLTVSPGGTVTLTCRSSTGAVTTSNYANWVQQKPGQAPRGLIGGTNKRAPGVPARFSGSLLGDKAALTLLGAQPEDEAEYYCALWYSNLWVFGQGTKLTVLGGGGSGGGGSGGGGSGGGGSEVQLVESGGGLVQPGGSLKLSCAASGFTFNTAAMNWVRQASGKGLEWVGRIRSKYNNYATYYADSVKDRFTISRDDSKSTLYLQMNSLKTEDTAVYYCARHGNFGQSYVSWFAYWGQGTTVTVSS", "quantity unit": "s⁻¹", "koff": 0.201}

*Q* State the recorded koff for this entry: SGN70-sp34.24LH (bispecific antibody, part only; not given: anti-CD70 Fab arm and Fc, not shown: another chain or arm of the molecule; a dimerising Fc or GST; large carriers; small tags and cut ends) scFv: QAVVTQEPSLTVSPGGTVTLTCRSSTGAVTTSNYANWVQQKPGQAPRGLIGGTNKRAPGVPARFSGSLLGDKAALTLLGAQPEDEAEYYCALWYSNLWVFGQGTKLTVLGGGGSGGGGSGGGGSGGGGSEVQLVESGGGLVQPGGSLKLSCAASGFTFNTYAMNWVRQASGKGLEWVGRIRSKYNNYATYYADSVKDRFTISRDDSKSTLYLQMNSLKTEDTAVYYCARHGNFGQSYVSWFAYWGQGTTVTVSS
*A* 0.0146

*Q* State the recorded koff for this entry: SGN70-sp34.87LH (bispecific antibody, part only; not given: anti-CD70 Fab arm and Fc, not shown: another chain or arm of the molecule; a dimerising Fc or GST) scFv: QAVVTQEPSLTVSPGGTVTLTCRSSTGAVTTSNYANWVQQKPGQAPRGLIGGTNKRAPGVPARFSGSLLGDKAALTLLGAQPEDEAEYYCALWYSNLWVFGQGTKLTVLGGGGSGGGGSGGGGSGGGGSEVQLVESGGGLVQPGGSLKLSCAASGFTFNTYAMNWVRQASGKGLEWVGRIRSKYNNYATYYADSVKDRFTISRDDSKSTLYLQMNSLKTEDTAVYYCARHYNFGQSYVSWFAYWGQGTTVTVSS
*A* 0.107

*Q* State the recorded koff for this entry: SGN70-sp34.97HL (bispecific antibody, part only; not given: anti-CD70 Fab arm and Fc, not shown: another chain or arm of the molecule; a dimerising Fc or GST) scFv: EVQLVESGGGLVQPGGSLKLSCAASGFTFNTYAMNWVRQASGKGLEWVGRIRSKAGGYATYYADSVKDRFTISRDDSKSTLYLQMNSLKTEDTAVYYCARHGNFGQSYVSWFAYWGQGTTVTVSSGGGGSGGGGSGGGGSGGGGSQAVVTQEPSLTVSPGGTVTLTCRSSTGAVTTSNYANWVQQKPGQAPRGLIGGTNKRAPGVPARFSGSLLGDKAALTLLGAQPEDEAEYYCALWYSNLWVFGQGTKLTVL
*A* 0.416

*Q* State the recorded koff for this entry: SGN70-sp34.24HL (bispecific antibody, part only; not given: anti-CD70 Fab arm and Fc, not shown: another chain or arm of the molecule; a dimerising Fc or GST; large carriers; small tags and cut ends) scFv: EVQLVESGGGLVQPGGSLKLSCAASGFTFNTYAMNWVRQASGKGLEWVGRIRSKYNNYATYYADSVKDRFTISRDDSKSTLYLQMNSLKTEDTAVYYCARHGNFGQSYVSWFAYWGQGTTVTVSSGGGGSGGGGSGGGGSGGGGSQAVVTQEPSLTVSPGGTVTLTCRSSTGAVTTSNYANWVQQKPGQAPRGLIGGTNKRAPGVPARFSGSLLGDKAALTLLGAQPEDEAEYYCALWYSNLWVFGQGTKLTVL
*A* 0.029
